Data provenance: the supplement of paper PMC6555819

System: RXRa homodimer (NR concentration 180 nM)
Assay: PBM binding z-score (relative to random genomic background probes); higher = stronger binding; sequences stand for … in GC…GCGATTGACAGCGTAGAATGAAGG
The threshold is inclusive: PBM binding z-score of exactly 0.7 counts as T; values below receive F.

Solved cases below.
# SEQUENCE RECORD, ASSIGNED CLASS
records = [
    ("TAGCCTAGGTCAGATCGGGCCAGAATACGCTATA", "T"),
    ("ACTCGGAAGACAAAGGTCAGAGCTACGCCAGTGA", "T"),
    ("TCTATTAGTTGAAGGCCAACCGACGAGTCCGTTT", "F"),
    ("GCTCCTAGGTCAACTGATGGTCAGCTAAAGCTCG", "T"),
    ("CGAACGAGGGCATGAGCTGATAGCAAATGCCGAT", "T"),
    ("CGTCCAAGGTCAATGCTGGGTCAGTGAAAGCATT", "T"),
    ("TAGCCTAGGACATGGGCCAGTATACCACGCGAAC", "F"),
    ("TCGAGTAGGTTAGGGGCTTTCAGAATGGCGTCGA", "F"),
    ("CTCGAAAGGTCGTGCTCACGTGAGTATACCAAAC", "T"),
    ("ATCTCTAGGTAACAAGTTAAGTGAAAGAGAGGAC", "F"),
]

Query string: Quick check, PBM binding z-score >= 0.7? CCTGCTAGGTCATGGTCAGCTCATCTACAGTATG
Result string: T

----------
System: PPARg DBDmut IVT, anti-PPARg (DBD mutation: PPARg1 K132A/R137A, NR concentration 270 nM)
Assay: PBM binding z-score (relative to random genomic background probes); higher = stronger binding; sequences stand for … in GC…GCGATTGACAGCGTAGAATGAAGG
PROPERTY LABEL: PBM binding z-score

Some solved cases for reference:
# SEQUENCE RECORD, PBM binding z-score
data = [
    ("CAAACTAGGTCACAGGAAGGTCAAAGTCCGCATG", 2.12),
    ("ATATGTAGGTTACATCCGGGTCATTCAGGCTATG", 1.6),
    ("ATCGAAAGGTCGAAGTTGAGTATACCCACCCGAA", 1),
    ("ATCGAAAGGTCGTGAGGTGAGTAGACAGAAAGGC", 0.706),
    ("TCAGACAGGTGGAGGTAACTCAGGTACGCAGTCG", -0.319),
]

Short answer for CAAACTAGGTCAAGGTCATAGTCGGTTTGTGCCA : PBM binding z-score was 1.94

----------
Test system: RARg:RXRa (NR concentration 270 nM, RXRa partner concentration 90 nM)
Assay: PBM binding z-score (relative to random genomic background probes); higher = stronger binding; sequences stand for … in GC…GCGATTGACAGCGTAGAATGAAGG
# reported PBM binding z-score; entries follow

Some solved cases for reference:
# SEQUENCE RECORD, PBM binding z-score
records = [
    ("GCTGCTAGGTCAACAGATGGTCAGCTAAAGCTCG", 4.81),
    ("CCTCGGAGGACAGAAGATCAGAGCTGTCCGCTTT", -0.0315),
    ("CGTCCAAGCTCAAAGGTCAGTGAAGAGATGACGG", 4.58),
    ("GCAGACAGGTTAAACGCAGGTAACTCAGGGTGGC", 1.81),
    ("ATCTCTAGGTGAAGATAGTTCAGTGAATGCAAAT", 1.16),
]

Short answer for CGACCAAGGTCAAAGGTCAGTGAAGAGATGACGG : PBM binding z-score was 8.66

Short answer for CCTACTGCGCCAAGGTCATTGATCAGTCAAAGCA : PBM binding z-score was 3.72

Short answer for CCGACAGGGGCATAAGGTTACCATAAGCCAGCCC : PBM binding z-score was 2.36

Short answer for ATCGAAGGGTCGACGAGGTGAGTATACACCGTTT : PBM binding z-score was 2.38

Short answer for CGAACTAGGTCATCCAGGACAGTAAATACATTGA : PBM binding z-score was 4.05

Short answer for ATCTCTAGGTACAGTTCAGTGAAAGATCGATAGA : PBM binding z-score was 0.55
